Data credit: PubChem BioAssay (NCI)

Tested on: SR leukemia
method description: NCI tumour cell line growth inhibition, 48 h; in the data active = GI50 below about 0.43 µM; inactive = the rest
In this exercise, the only acceptable responses are active, inactive

structure as smiles: Cc1cc(-c2nnc(/C=C/c3ccc4c(c3)OCO4)o2)n[nH]1
class label: inactive

structure as smiles: NCCCCCNc1noc(Cc2c[nH]c3cc(Br)ccc23)n1
class label: active

structure as smiles: O=C1CC[C@H](N2Cc3c(OCc4ccc(CN5CCOCC5)cc4)cccc3C2=O)C(=O)N1
class label: inactive

As a next step, examine the molecule that follows.
Q: Hello, I am checking results. What call was entered for CCN(CC)c1c(-c2ccccc2)n[nH]c1C(=O)OC ?
Ans: inactive

----------
System: HL-60(TB) leukemia
method description: NCI tumour cell line growth inhibition, 48 h
The following compounds are shown together with reported TGI values.

Some compounds with recorded TGI:
compound: CCOC(=O)c1nc2ccccc2nc1NCc1ccc(OC)c(OC)c1
study target: HL-60(TB) leukemia
TGI: > 100 µM
//
compound: CC[C@H](C)C1=C(OC(C)=O)[N@+]2([O-])Oc3ccc(-c4c(O)c(O)c(-c5ccc(OC(C)=O)cc5)c(OC(C)=O)c4OC(C)=O)cc3O[C@]2([C@@H](C)CC)C(=O)N1O
study target: HL-60(TB) leukemia
TGI: > 50 µM
//
compound: CC(C)(C)OP(=O)(OC(C)(C)C)C(O)c1ccc(/C=C(\C#N)C(N)=O)cc1 (stereo not given)
study target: HL-60(TB) leukemia
TGI: > 100 µM
//
compound: O=C1CC(c2c(-c3ccccc3)[nH]c3ccccc23)C(=O)N1c1ccccc1 (stereo not given)
study target: HL-60(TB) leukemia
TGI: > 100 µM

Q: Lab request: please report TGI under test system HL-60(TB) leukemia for N#Cc1c(-c2ccccc2)cc(-c2ccc(N)cc2)[nH]c1=O
Ans: > 100 µM

Q: API: value(readout= TGI, system= HL-60(TB) leukemia, query= O=C1c2c(Br)sc(Br)c2[C@@H](Cl)[C@H]1Cl )
Ans: 20.5 µM

Q: Query TGI on HL-60(TB) leukemia for CCC1C(C)C=NN1c1nc(N)nc(C(C#N)=Nc2ccc(N(C)C)cc2)n1 (stereo not given)
Ans: > 50 µM

Q: Entry CC(C)(C)C1CCC2c3c([nH]c4ncccc34)C3C(=O)N(c4ccccc4)C(=O)C3C2C1 (stereo not given) , system HL-60(TB) leukemia: what TGI was measured?
Ans: > 100 µM

Q: Please provide the recorded TGI for CC1=C(C(=O)NCc2ccccc2)C(c2ccc(Cl)c(Cl)c2)C(C(=O)NCc2ccccc2)=C(C)N1 , tested on HL-60(TB) leukemia.
Ans: > 100 µM

Q: Hello, I am looking for reported TGI with HL-60(TB) leukemia for O=C(NCCc1ccccc1)Nc1ccc2cc3ccc(NC(=O)NCCc4ccccc4)cc3nc2c1 . Could you help?
Ans: 0.774 µM

----------
Tested on: UACC-62 melanoma
method description: NCI tumour cell line growth inhibition, 48 h
endpoint: TGI (µM)
# number only, unit µM dropped from output

compound: c1csc(-c2nccc3c2[nH]c2ccccc23)c1
endpoint: TGI
unit string: µM
reported measurement: 62.4
//
compound: O=NN1C(c2ccccc2)C2CCCC(C2=O)C1c1ccccc1 (stereo not given)
endpoint: TGI
unit string: µM
reported measurement: 59

Q: Query: TGI; subject: O=C(O)c1cc2ccccc2c2c3c(ccc12)OCO3
Ans: 279

Q: Reported TGI for CC(=O)Nc1ccc2c3c(cc(O)c2c1)N(C(=O)CCCCC(=O)N1CC(CCl)c2c1cc(O)c1cc(NC(C)=O)ccc21)CC3CCl (stereo not given) : what is it?
Ans: 0.22

Q: Return reported TGI; argument: CCCCCCCCCCCCCCCCCCNCc1ccc(Cl)cc1
Ans: 15.5
